assay.overview: Pseudomonas biofilm growth suppression – PAO1 strain, BacTiter-Glo luminescence, LB-PBS, primary screen (AID 1144)
condition.notes: P. aeruginosa PAO1 biofilm, 12 h, higher = more signal
Activity calls are given as the source filed them. How the calls were made is not given here.
Reported values of z-score for individual entries
measured.parameter: z-score

CCOC(=O)C1=C[C@@H](C(C)C)N(S(=O)(=O)c2ccc(C)cc2)[C@H]1c1ccccc1F | -0.0791 (inactive)
CCCCC(=C=CC[C@@H](O)c1ccc(CO)o1)CCO | -0.748 (inactive)
COCCOC(=O)N1C(=O)[C@@]2(c3cc(C#CC4(O)CCCCCC4)ccc31)[C@H](c1ccccc1OCCO)N1[C@H](c3ccccc3)[C@H](c3ccccc3)OC(=O)[C@H]1[C@@H]2C(=O)N1CCc2cc(OC)c(OC)cc2C1 | -0.665 (inactive)
O=C(NCCN1CCOCC1)[C@@H]1c2ccccc2C(=O)N(Cc2cc(C(F)(F)F)cc(C(F)(F)F)c2)[C@H]1c1ccc(CO)cc1 | 0.623 (inactive)
C=C(CCCC)C(=O)CC[C@@H](OC(C)=O)c1ccc(CO)o1 | -0.905 (inactive)

====

study.target: Follistatin (Homo sapiens)
assay.overview: FST protein binding to printed compounds – biochemical, small-molecule microarray, 635/667 nm fluorescence, primary screen (AID 1132)
condition.notes: 635 nm fluorescence, higher = more signal
Think of 1 as a floor: if composite z-score stands on it or above, it is met; beneath it, not met.

COCCOC(=O)N1C(=O)[C@@]2(c3ccccc31)[C@H](C(=O)N1CCCCCCC1)[C@H]1C(=O)O[C@H](c3ccccc3)[C@H](c3ccccc3)N1[C@@H]2c1ccc(OCCO)cc1 | met
CO[C@H]1O[C@H](CO)[C@@H](OC(=O)Nc2ccccc2)[C@@H]2OC(=O)[C@@H](Cc3ccc4ccccc4c3)C/C=C/C[C@H](Cc3ccc4ccccc4c3)C(=O)O[C@@H]12 | not met
CCCCCCc1nc(-c2ccc(-c3ccc(Cl)c(Cl)c3)o2)c(C)c2c1[Si](C(C)C)(C(C)C)OC2 | not met
C=C(C)[C@@H]1CC=C(C(O)C2C=CC3C(=O)NC(=O)C3N2Nc2ccc(Cl)cc2Cl)CC1 (stereo partly specified) | met
CC(C)[Si](C#C[Si](C(C)C)(C(C)C)C(C)C)(O[C@H](C)c1cn(Cc2ccccc2)nn1)C(C)C | not met
COc1ccc(C(=O)Nc2cccc(CN3C(=O)[C@]4(O[C@H](CCn5cc(CCO)nn5)[C@@H]([Si](C)(C)c5ccc(OC)cc5)[C@@H]4C)c4ccccc43)c2)cc1 | met

====

assay.overview: S6 kinase pathway phospho-S6 level changes – cell-based, A549, cytoblot, luminescence, serum-stimulated, primary screen (AID 1158);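 further: serum-stimulated A549 lung adenocarcinoma cells; signal is phosphorylated S6 detected by cytoblot immunostaining with HRP secondary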
condition.notes: 5 h, higher = more signal
measured.parameter: z-score

C=C(/C(=C/C[C@H](OC(C)=O)c1ccc(OCCO)cc1)c1cc(C(=O)OC)ccc1OC)C(C)C | 0.31
Cc1ccc(C2C3C(=O)CC4C(=O)N(c5ccccc5)C(=O)C4C3CN2S(=O)(=O)c2ccc(C)cc2)cc1 (stereo unspecified) | -0.69
C=CCNC(=O)[C@@H]1[C@H]2C(=O)O[C@H](c3ccccc3)[C@H](c3ccccc3)N2[C@H](c2ccc(OCCO)cc2)[C@@]12C(=O)N(C(=O)OCCOC)c1ccc(C#CCC(C(=O)OC)C(=O)OC)cc12 | -0.0943
[N-]=[N+]=NCc1ccccc1C[C@@]1(C(=O)NCC(O)CO)N=C(c2ccc(OCCCO)cc2)O[C@@H]1c1ccccc1 (stereo partly specified) | -0.11
O=C1O[C@H](c2ccccc2)[C@H](c2ccccc2)N2[C@H]1[C@@H](C(=O)NC[C@H](O)c1ccccc1)[C@]1(C(=O)Nc3ccc(C#CC4=CCCCC4)cc31)[C@H]2c1ccccc1OCCO | 0.233
COCCOC(=O)N1C(=O)[C@@]2(c3cc(C#CCCO)ccc31)[C@H](c1ccc(O)cc1)N1[C@H](c3ccccc3)[C@H](c3ccccc3)OC(=O)[C@H]1[C@@H]2C(=O)N1CCN(c2ncccn2)CC1 | 0.078
